Source listed as patent US20250059174A1.

Test system: M-07e cells
Experiment: M-07e cellular assay (SCF-mediated cell proliferation)
Assay type: cell-based
Conditions: Homo sapiens, 72 hours, CellTiter Glo
Entries and their EC50

Cc1ncc(-c2noc([C@H]3CC34CC4)n2)cc1NC(=O)c1cnn2ccc(N3CC4(C3)CC(O)(C(F)F)C4)cc12 [Example 281-16]; < 100 nM
Cc1ccc(-c2noc([C@H]3C[C@@H]3F)n2)cc1NC(=O)c1cnn2ccc(N3CC4(C3)CC(C)(O)C4)cc12 [Example 181]; < 100 nM
Cc1ncc(-c2noc(C3CN(C(=O)C4(F)CC4)C3)n2)cc1NC(=O)c1cnn2ccc(N3CC4(COC4)C3)cc12 [Example 281-85]; 100 to 1000 nM

Any idea what its EC50 is? The compound is Cc1ccc(-c2noc([C@H]3C[C@@H]3F)n2)cc1NC(=O)c1cnn2ccc(N3CC4(CCN(CC(F)(F)F)C4)C3)cc12 [Example 188]
100 to 1000 nM

Try this compound next: Cc1ncc(-c2noc(C3(F)CN(CC(F)F)C3)n2)cc1NC(=O)c1cnn2ccc(N3CC4(C3)CC(O)(C(F)F)C4)cc12 [Example 281-105]
100 to 1000 nM

----------
Tested on: M-07e cells
Test: M-07e cellular assay (SCF-mediated cell proliferation)
Type: cell-based
Conditions: Homo sapiens, 72 hours, CellTiter Glo
pEC50: −log10 of the molar value.
observation type: pEC50

Below, each entry is followed by its recorded pEC50 result.
Cc1ccc(-c2noc([C@H]3C[C@@H]3F)n2)cc1NC(=O)c1cnn2ccccc12; > 7.00
Cc1ncc(-c2ccc(OC(F)F)nc2)cc1NC(=O)c1cnn2ccc(N3CC4(COC4)C3)cc12; > 7.00
Cc1ccc(-c2noc([C@H]3C[C@@H]3F)n2)cc1NC(=O)c1cnc(-c2ccc3cc[nH]c3c2)o1; 6.00 to 7.00
Cc1ccc(-c2cnc(C3CC3)cn2)cc1NC(=O)c1cnn2ccc(N3CC4(COC4)C3)cc12; > 7.00
C#Cc1ccn2ncc(C(=O)Nc3cc(-c4noc([C@H]5C[C@@H]5F)n4)ccc3C)c2c1; > 7.00

Any idea what its pEC50 is? The molecule is Cc1ccc(-c2noc([C@H]3C[C@@H]3F)n2)cc1NC(=O)c1cnn2ccc(N3CC(C(=O)NC4CC4)C3)cc12
> 7.00

Try this molecule next: Cc1ccc(-c2noc([C@H]3C[C@@H]3F)n2)cc1NC(=O)c1cnc(-c2ccc3c(c2)NCCO3)o1
> 7.00

Try this molecule next: Cc1ccc(-c2noc([C@H]3C[C@@H]3F)n2)cc1NC(=O)c1cnc(-c2cccc3nc[nH]c23)o1
6.00 to 7.00

Try this molecule next: Cc1ccc(-c2noc([C@H]3C[C@@H](OC(F)F)C3(C)C)n2)cc1NC(=O)c1cnn2ccc(N3CC4(CCN(CC(F)F)C4)C3)cc12
6.00 to 7.00

Try this molecule next: Cc1nc(C)c(-c2ccn3ncc(C(=O)Nc4cc(-c5noc([C@H]6C[C@@H](OC(F)(F)F)C6)n5)ccc4C)c3c2)c(C)n1
6.00 to 7.00

Try this molecule next: Cc1ncc(-c2noc([C@H]3C[C@@H](OC(F)(F)F)C3)n2)cc1NC(=O)c1cnn2cc(-c3cn(CCO)nn3)ccc12
> 7.00

Try this molecule next: Cc1sc(-c2ncc(C3CC3)cn2)cc1NC(=O)c1cnn2ccc(N3CC4(C3)CC(O)(C(F)F)C4)cc12
> 7.00

Try this molecule next: Cc1ccc(-c2noc([C@H]3C[C@@H]3F)n2)cc1NC(=O)c1cnn2ccc(N)cc12
> 7.00

Try this molecule next: Cc1ccc(-c2noc([C@H]3C[C@@H]3F)n2)cc1NC(=O)c1cnn(-c2ccccc2)c1
6.00 to 7.00
